Reference source for all entries: the supplement of paper PMC10567573

B1: GAGE1 (parent)
chain: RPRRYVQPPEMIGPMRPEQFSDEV

Variants of: B1
Test: protein stability index of a GFP-peptide fusion (GPS, HEK-293T) (PSI 1-6); higher = more stable;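 further: lentivirally expressed fusions sorted by FACS into six bins by GFP to DsRed ratio, PSI derived from sequencing read proportions per bin multiplied by bin number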
Conditions: c terminus: a fixed tail appended
outcomeMeasure: protein stability index
Answers are plain numbers.

Field: example entries. Status: answers known.
>>> recordedmeasurement("RPRRYYQPPEMIGPMRPEQFSDEV [V6Y]")
3.01
>>> recordedmeasurement("RPRRYVQPPEMIGPMRPEQFSIEV [D22I]")
1.97

State recorded protein stability index for all listed variants.
1. HPRRYVQPPEMIGPMRPEQFSDEV [R1H]
2. RPRRYVQPPEMIGPMRPEQFSDMV [E23M]

[A]
[3.94, 2.85]

State recorded protein stability index for all listed variants.
1. RPRRYVQPPEMIGPMRTEQFSDEV [P17T]
2. RPRRYVQPPEMIGPMRPFQFSDEV [E18F]
3. IPRRYVQPPEMIGPMRPEQFSDEV [R1I]
4. RPRRYVQPPEMIGPMRPEMFSDEV [Q19M]

[A]
[3.85, 3.34, 3.7, 3.58]

State recorded protein stability index for all listed variants.
1. RPRRMVQPPEMIGPMRPEQFSDEV [Y5M]
2. RPRRYVQPPEMIGPMRLEQFSDEV [P17L]
3. RPRRYVQIPEMIGPMRPEQFSDEV [P8I]
4. RPRRYVQPPRMIGPMRPEQFSDEV [E10R]
5. RPRRYVQPPEMLGPMRPEQFSDEV [I12L]
6. RPRRYVQPPEMIGPWRPEQFSDEV [M15W]

[A]
1. 3.47
2. 3.97
3. 3.27
4. 4.39
5. 4.12
6. 3.49
